testedTarget: human MC4 receptor (human), P32245
Sequence (P32245 whole entry): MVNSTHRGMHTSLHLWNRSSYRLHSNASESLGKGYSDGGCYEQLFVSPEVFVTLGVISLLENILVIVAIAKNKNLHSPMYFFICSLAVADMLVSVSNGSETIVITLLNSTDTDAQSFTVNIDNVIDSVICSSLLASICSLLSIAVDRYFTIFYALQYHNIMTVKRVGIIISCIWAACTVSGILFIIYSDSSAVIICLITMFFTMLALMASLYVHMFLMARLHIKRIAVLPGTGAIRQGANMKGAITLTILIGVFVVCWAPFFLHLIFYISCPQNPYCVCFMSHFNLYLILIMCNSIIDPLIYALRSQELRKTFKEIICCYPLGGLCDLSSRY
experimentalDetails: competition
conditionLabel: modification not given
quantity: Ki (nM)

1) YRCEHFRWC [Compound 77] :: 0.41
